tested on: SW-620; assay: NCI tumour cell line growth inhibition, 48 h
Activity calls are given as the source filed them. Cut-off read from the data, not from the text of the source: active = GI50 up to about 1.1 µM and inactive = higher.
Outcome field: choose from yes (1) for active, no (0) for inactive

Observe how each entry below is paired with its result.
| Compound | Tested Target | Class Label |
| --- | --- | --- |
| CC(C)[C@H](COC(C)(C)C)/N=C/N1CSc2ccccc21 | SW-620 | no (0) |
| O=C1CC(c2ccc(Cl)cc2)Oc2ccccc21 (centres undefined) | SW-620 | no (0) |
| CCOc1ccc(NC(=O)/C(=N\NC(C)(C)C)C2C(=O)Nc3ccccc3[S+]2[O-])cc1 (centres undefined) | SW-620 | no (0) |
| COc1cc([C@@H]2c3cc4c(cc3[C@@H](Nc3ccccc3C(=O)c3ccccc3)[C@H]3COC(=O)[C@H]23)OCO4)cc(OC)c1OC | SW-620 | yes (1) |
| O=C(CCSC(CC(=O)c1ccc(Cl)cc1)c1ccc(Cl)cc1)Nc1ccc(Cl)cc1 (centres undefined) | SW-620 | no (0) |

Consider now this further compound.
Q: Could you please tell me the result logged for CCOc1cccc2sc(N)nc12 in this assay?
Result: no (0)

* * *

system: NCI-H460; assay: NCI tumour cell line growth inhibition, 48 h
Calls of active or inactive are those of the source. Cut-off read from the data, not from the text of the source: active = GI50 up to about 1.1 µM and inactive = higher.
Outcome field: choose from yes for active, no for inactive

Observe how each entry below is paired with its result.
| Compound | Class Label |
| --- | --- |
| Oc1cccc2ccc(SSc3ccc4cccc(O)c4n3)nc12 | no |
| COC1CCC(OS(C)(=O)=O)C(CO)O1 (stereo unspecified) | no |

Q: Could you please tell me the result logged for N#CC1=C(N)OC2=C(CSc3ccccc32)C1c1ccc(Br)cc1 (stereo unspecified) in this assay?
Result: no

Q: Could you please tell me the result logged for CN1CC[C@@]2(c3cccc(O)c3)CC(=O)/C(=C/c3ccccc3)[C@H]1C2.[O-][Cl+3]([O-])([O-])O in this assay?
Result: no

Q: Could you please tell me the result logged for CC(C)(C)C(=O)/C=C(\OB(F)F)C(C)(C)C in this assay?
Result: no

Q: Could you please tell me the result logged for CCOC(=O)/C(C#N)=C1/C(O)=C(C(=O)OC)C(C(=O)OC)=C1C(=O)OC.c1ccncc1 in this assay?
Result: no

Q: Could you please tell me the result logged for COc1cccc(C2c3cc4c(cc3OC(N3CCCC3)C2c2ccccc2)OCO4)c1O (stereo unspecified) in this assay?
Result: no

* * *

tested on: CCRF-CEM; test: NCI tumour cell line growth inhibition, 48 h
Activity calls are given as the source filed them. No stated cut-off is given here; in the data, active = GI50 up to about 1.1 µM and inactive = higher.
Outcome field: choose from label 1 (active), label 0 (inactive)

Q: Could you please tell me the result logged for CC12CCC(=O)C[C@H]1CCC(OC=O)C2Br (some centres not stated) in this assay?
Result: label 0

Q: Could you please tell me the result logged for Oc1ccc(-c2cc(-c3cc(-c4ccc(O)cc4)no3)on2)cc1 in this assay?
Result: label 1

Q: Could you please tell me the result logged for C/C(=C/C(=O)Nc1ccccc1)Nc1onc(C)c1C in this assay?
Result: label 0

Q: Could you please tell me the result logged for CCCC[C@@H](C)/C=C1\CN2CCC[C@H]2[C@@](C)(OCc2ccccc2)[C@@H]1O in this assay?
Result: label 0

Q: Could you please tell me the result logged for O=C1NC2OC(C(O)CO)C(O)C2O1 (configuration not stated) in this assay?
Result: label 0

Q: Could you please tell me the result logged for O=C1C(Br)=CC2(C=C1Br)CCNC1=C2C(=O)c2cccnc2C1=O in this assay?
Result: label 0

Q: Could you please tell me the result logged for COc1ccc(/C=N/N=C(\N)NO)c(Cl)c1O in this assay?
Result: label 0

* * *

The following molecules are listed with their measured GI50 values.
test system: ACHN; experiment: NCI tumour cell line growth inhibition, 48 h
The source made the active and inactive calls. Rule as the data show it: active = GI50 up to about 1.1 µM and inactive = higher.

| Molecule | GI50 |
| --- | --- |
| CC(=O)Nc1c(Nc2ccccc2)[nH]c(C)nc1=S | > 100 µM (inactive) |
| O=C(N/N=C/c1ccc([N+](=O)[O-])cc1)Nc1ccc(Br)cc1 | 60.7 µM (inactive) |
| CC1=CC[C@@]2(C)[C@@H]([C@@H]1C)[C@H]1CC[C@@H]3[C@@]4(C)CC[C@H](O)C(C)(C)[C@@H]4CC[C@@]3(C)[C@]1(C)C[C@@H]2O | 9.62 µM (inactive) |

Record CC1(C)C=[N+]([O-])C(C)(C)N1O ; system ACHN; GI50 = > 10 µM (inactive)

Record Cc1cccc2c1[nH]c1[nH]c(=O)[nH]c(=O)c12 ; system ACHN; GI50 = > 100 µM (inactive)

Record COc1ccc(C(C2=C(O)CC(C)OC2=O)C2=C(O)CC(C)OC2=O)cc1 (stereo not given) ; system ACHN; GI50 = > 100 µM (inactive)

Record CCO/C=N/C1=C(C#N)C(c2ccc(OC)c(OC)c2)c2c(-c3ccccc3)nn(-c3ccccc3)c2O1 (stereo not given) ; system ACHN; GI50 = 13.2 µM (inactive)

Record COc1cc(C=O)ccc1O ; system ACHN; GI50 = > 100 µM (inactive)

Record COc1ccc(C2CC(=O)CC(c3ccc(OC)cc3)C23C(=O)NC(=O)NC3=O)cc1 (stereo not given) ; system ACHN; GI50 = 31.3 µM (inactive)

Record O=C(C=P(c1ccccc1)(c1ccccc1)c1ccccc1)CC(=S)CC(=O)C=P(c1ccccc1)(c1ccccc1)c1ccccc1 ; system ACHN; GI50 = 7.08 µM (inactive)

* * *

tested on: NCI-H226; assay: NCI tumour cell line growth inhibition, 48 h
Active and inactive are the calls of the source. Cut-off read from the data, not from the text of the source: active = GI50 up to about 1.1 µM and inactive = higher.
Measurement Type: GI50

Use these answered entries as a reference point.
| Compound | Experimental Result |
| --- | --- |
| C=CCN(C(C)=O)c1cc(OCc2ccccc2)c2c(c1)c(C)cn2S(=O)(=O)c1ccccc1 | 7.29 µM (inactive) |
| CSc1nc(Br)nc2ncn(C3CC(Oc4ccc(C)cc4)C(COc4ccc(C)cc4)O3)c12 (stereo not given) | > 100 µM (inactive) |
| C[C@H]1C[C@H]2[C@@H]3CCC4=CC(=O)C=C[C@]4(C)C3=CC[C@]2(C)[C@@]1(O)C(=O)CO | > 100 µM (inactive) |
| Cc1cccc(C)c1NC(=O)CCC(=O)CC(=O)C(C)C | > 100 µM (inactive) |

Field: next compound
The value of GI50 measured for the compound CCCOCN1COCN/C1=N\C#N turned out to be > 100 µM (inactive)

* * *

test system: NCI-H460; test: NCI tumour cell line growth inhibition, 48 h
Active and inactive are the calls of the source. Rule as the data show it: active = GI50 up to about 1.1 µM and inactive = higher.
Outcome field: choose from true (1) = active, false (0) = inactive

Observe how each entry below is paired with its result.
| Compound | Class Label |
| --- | --- |
| COc1ccc2[nH]c3c4c(c5cc(C(C)(C)C)ccc5c3c2c1)C(=O)N(c1ccccc1)C4=O | false (0) |
| CCCC(=O)OCC1OC(n2cc(F)c(=O)[nH]c2=O)CC1O (stereo not drawn) | true (1) |

Q: Could you please tell me the result logged for COc1nn(Cc2ccccc2F)c2ccc([N+](=O)[O-])cc12 in this assay?
Result: false (0)

Q: Could you please tell me the result logged for O=c1[nH]c(=O)n(C2OC(CO)C(O)C2O)c2c1CCCC2 (stereo not drawn) in this assay?
Result: false (0)

Q: Could you please tell me the result logged for CC1(C)OC(=O)N(c2ccccc2)C12C=Cc1cccc([N+](=O)[O-])c1O2 (stereo not drawn) in this assay?
Result: false (0)

* * *

test system: LOX IMVI; assay: NCI tumour cell line growth inhibition, 48 h
Calls of active or inactive are those of the source. No stated cut-off is given here; in the data, active = GI50 up to about 1.1 µM and inactive = higher.
Outcome field: choose from class 1 (active), class 0 (inactive)

Observe how each entry below is paired with its result.
| Compound | Tested Target | Class Label |
| --- | --- | --- |
| NC(=S)N/N=C/c1cn(CCCl)c2ccccc12 | LOX IMVI | class 0 |
| COc1ccc(C2=Cc3nc2c(-c2ccccc2)c2ccc([nH]2)c(-c2ccccc2)c2nc(c(-c4ccccc4)c4ccc([nH]4)c3-c3ccccc3)C=C2)cc1 | LOX IMVI | class 0 |
| CCc1c(Cc2cc(C)cc(C)c2)n2c(nc1=O)SCC2CBr (stereo not drawn) | LOX IMVI | class 0 |
| C=CCNC(=O)CN(CC(=O)O)C1CCCCC1N(CC(=O)O)CC(=O)O (stereo not drawn) | LOX IMVI | class 0 |
| O=C(/C=C/c1ccc(O)c([N+](=O)[O-])c1)CC(=O)/C=C/c1ccc(O)c([N+](=O)[O-])c1 | LOX IMVI | class 0 |

Q: Could you please tell me the result logged for O=C(O)CCCC(=O)Nn1c(Cc2ccc(Cl)cc2)n[nH]c1=O in this assay?
Result: class 0

Q: Could you please tell me the result logged for COc1ccc2nc(NCN3C(=O)c4ccccc4C3=O)sc2c1 in this assay?
Result: class 0

Q: Could you please tell me the result logged for COc1nn(Cc2ccccc2F)c2ccc([N+](=O)[O-])cc12 in this assay?
Result: class 0

Q: Could you please tell me the result logged for Cc1ccccc1NC(=O)/C=N/O in this assay?
Result: class 0

Q: Could you please tell me the result logged for O=C(O)CNc1c2ccccc2nc2ccccc12 in this assay?
Result: class 0

Q: Could you please tell me the result logged for CN(CCN)[C@H](CSSC[C@@H](c1ccccc1O)N(C)CCN)c1ccccc1O in this assay?
Result: class 0

Q: Could you please tell me the result logged for CCOC(=O)/C(C#N)=C1/C(O)=C(C(=O)OC)C(C(=O)OC)=C1C(=O)OC.c1ccncc1 in this assay?
Result: class 0

Q: Could you please tell me the result logged for COc1cc(/C=C2\CCC/C(=C\c3ccc(OC(=O)CCCCC4CCSS4)c(OC)c3)C2=O)ccc1OC(=O)CCCCC1CCSS1 (stereo not drawn) in this assay?
Result: class 0

Q: Could you please tell me the result logged for O=C(CSc1nnc(Cc2ccccc2)o1)Nc1cccc([N+](=O)[O-])c1 in this assay?
Result: class 0

Q: Could you please tell me the result logged for COc1ccccc1/N=N/c1c(-c2ccccc2)nn(C(=O)CC(=O)Nc2cccc(C)c2)c1-c1ccccc1 in this assay?
Result: class 0

Q: Could you please tell me the result logged for CC(C)(C)OC(=O)N1CCCC1=O in this assay?
Result: class 0

Measured values drawn from ChEMBL document CHEMBL1201862 for this set.
